- target-entity: Ataxin-2 (Homo sapiens) (UniProt Q99700)
- Sequence (Q99700 whole entry): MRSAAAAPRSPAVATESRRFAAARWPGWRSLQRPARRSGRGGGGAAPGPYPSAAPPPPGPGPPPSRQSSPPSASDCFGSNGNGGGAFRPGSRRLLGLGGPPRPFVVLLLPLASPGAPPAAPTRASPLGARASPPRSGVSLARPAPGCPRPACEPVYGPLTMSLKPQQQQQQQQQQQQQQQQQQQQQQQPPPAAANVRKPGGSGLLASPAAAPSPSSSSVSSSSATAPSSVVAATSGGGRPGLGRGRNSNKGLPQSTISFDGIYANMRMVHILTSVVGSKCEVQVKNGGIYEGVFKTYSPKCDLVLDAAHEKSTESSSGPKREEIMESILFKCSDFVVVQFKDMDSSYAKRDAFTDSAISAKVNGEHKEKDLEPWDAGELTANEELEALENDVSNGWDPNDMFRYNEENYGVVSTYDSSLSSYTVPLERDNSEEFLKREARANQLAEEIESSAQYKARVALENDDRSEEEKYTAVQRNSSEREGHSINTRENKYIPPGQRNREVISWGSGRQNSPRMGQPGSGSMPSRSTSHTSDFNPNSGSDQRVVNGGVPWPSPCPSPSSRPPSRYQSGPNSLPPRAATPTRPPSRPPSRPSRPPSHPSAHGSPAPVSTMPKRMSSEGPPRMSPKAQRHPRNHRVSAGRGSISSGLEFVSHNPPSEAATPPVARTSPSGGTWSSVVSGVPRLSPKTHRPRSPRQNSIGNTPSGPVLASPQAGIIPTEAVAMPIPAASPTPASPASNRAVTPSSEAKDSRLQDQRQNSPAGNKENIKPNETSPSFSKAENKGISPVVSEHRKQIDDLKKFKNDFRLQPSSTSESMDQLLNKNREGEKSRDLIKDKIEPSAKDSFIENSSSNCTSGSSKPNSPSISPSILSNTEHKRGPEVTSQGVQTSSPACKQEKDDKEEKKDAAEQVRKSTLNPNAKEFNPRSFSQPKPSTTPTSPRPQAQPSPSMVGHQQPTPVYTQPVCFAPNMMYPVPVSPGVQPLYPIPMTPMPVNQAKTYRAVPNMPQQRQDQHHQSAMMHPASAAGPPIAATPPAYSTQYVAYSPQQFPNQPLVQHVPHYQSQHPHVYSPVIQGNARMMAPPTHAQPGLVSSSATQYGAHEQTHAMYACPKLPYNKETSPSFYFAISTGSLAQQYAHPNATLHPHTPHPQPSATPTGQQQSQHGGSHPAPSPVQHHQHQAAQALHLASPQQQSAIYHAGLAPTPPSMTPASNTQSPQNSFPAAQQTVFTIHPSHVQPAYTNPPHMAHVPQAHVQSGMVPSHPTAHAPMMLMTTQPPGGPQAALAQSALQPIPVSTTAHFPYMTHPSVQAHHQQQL
- experiment-summary: qHTS for Inhibitors of ATXN expression.
- Assay type: functional
Screen size: about 400,000 compounds; about 1,900 (0.47%) were called active. Another 14% or so got no clear call; they are omitted. This excerpt belongs to a sample that is enriched for actives.
measured-metric: Potency

Sample records with Potency:
> print(dat)
                                   molecule   measured.result
1  CN1/C(=C\C=C2C(=O)NC(=S)NC2=O)C(C)(C)c2ccccc21  35.5 µM (active)
2  COc1ccc(CN2Cc3cnnn3-c3ccccc3C2C#N)cc1 (stereo not given)  12.6 µM (active)
3  C[C@@]12CC[C@H](O)C[C@@H]1CC[C@H]1[C@@H]2C[C@@H](O)[C@]2(C)[C@@H](C3=CC(=O)OC3)CC[C@]12O  3.16 µM (active)
4  COc1ccc(N2C(=O)NC(=O)/C(=C\c3c[nH]c4ccccc34)C2=O)cc1          inactive
5           O=[N+]([O-])/C=C/c1c(Cl)cccc1Cl  4.74 µM (active)
6  CC1(C)OC(c2ccccc2)=C/C(=C/C=C2C(=O)NC(=O)NC2=O)O1          inactive

Potency for CCC(=O)N1N=C2C3CCN(CC3)C2C1c1ccc(C)cc1 (stereo not given) is inactive

Entry `O=C1NC(=O)N(CCc2ccccc2)C(=O)/C1=C\NN1CCOCC1` ; Potency = inactive

Noted for `O=C(Cc1cc(=O)oc2cc(O)ccc12)NN=Cc1ccc(N(CCCl)CCCl)cc1` : its Potency reads inactive

Kindly note the recorded Potency for Cc1ccccc1CN1Cc2cnnn2-c2ccccc2C1C#N (stereo not given) , which is 17.8 µM (active)
